Target: Recombinant human GSS (Homo sapiens)
Sequence (P48637 2-474): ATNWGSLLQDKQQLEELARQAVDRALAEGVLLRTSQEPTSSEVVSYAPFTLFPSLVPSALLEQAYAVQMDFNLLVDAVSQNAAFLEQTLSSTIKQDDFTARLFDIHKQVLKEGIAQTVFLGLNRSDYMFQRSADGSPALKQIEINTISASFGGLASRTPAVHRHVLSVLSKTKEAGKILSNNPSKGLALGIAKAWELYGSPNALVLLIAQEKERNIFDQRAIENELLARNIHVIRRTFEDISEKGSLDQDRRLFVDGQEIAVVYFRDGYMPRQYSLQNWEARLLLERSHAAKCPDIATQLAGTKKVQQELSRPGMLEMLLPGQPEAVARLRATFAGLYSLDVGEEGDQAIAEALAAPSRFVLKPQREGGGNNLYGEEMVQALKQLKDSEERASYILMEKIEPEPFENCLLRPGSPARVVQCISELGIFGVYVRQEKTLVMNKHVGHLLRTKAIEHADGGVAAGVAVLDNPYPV
Assay: isothermal titration calorimetry
metric.name: pKd
Answers are plain numbers, as −log10 of the molar value.

Q) Find the recorded pKd belonging to N[C@@H](CCC(=O)N[C@@H](CS)C(=O)O)C(=O)O and report it.
A) 5.96
